Target or system: Gal3S(b1-4)[Fuc(a1-3)]GlcNAc
Assay details: glycan array binding signal (z-score within array); higher = stronger binding
Cond: glycan notation: IUPAC condensed, linker removed
Shown is part of a subset that was picked to be rich in the strongest signals.
Where glycan array binding signal (z-score) equals or exceeds 0.8, the correct label is Satisfied; where it does not, the label is Not satisfied.

Hi, just wondering whether Flo1 (Saccharomyces cerevisiae), P32768 (protein) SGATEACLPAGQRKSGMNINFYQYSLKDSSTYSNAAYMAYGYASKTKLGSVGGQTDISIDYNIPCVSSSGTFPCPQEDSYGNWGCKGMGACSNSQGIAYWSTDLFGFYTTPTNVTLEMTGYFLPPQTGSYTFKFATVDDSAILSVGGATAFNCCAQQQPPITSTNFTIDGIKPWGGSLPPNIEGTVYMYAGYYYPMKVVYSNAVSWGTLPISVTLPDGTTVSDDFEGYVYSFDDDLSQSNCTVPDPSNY shows glycan array binding signal (z-score) of 0.8 or higher.
Not satisfied
